system: U251 CNS; test: NCI-60 one-dose screen, 48 h; details: 10 µM unless noted
About 83,000 compounds went through this panel and 20% of them were active in at least one assay; those are over-represented in the sample as a whole. Activity calls are given as the source filed them. The calls were made as follows: active = growth percent below 10; inactive = the rest.
Hello, when you answer, please use one of the following outcomes: active, inactive

Prompt line: Please share the test call associated with `COc1ccc2[nH]cc(-c3nn4cc(-c5ccncc5)nc4s3)c2c1` .
Response line: inactive

Prompt line: Please share the test call associated with `CC1=C(C)C(=O)C(Nc2ccc3c(c2)OCCO3)=C(Br)C1=O` .
Response line: inactive

====

tested on: RPMI-8226 leukemia; assay: NCI-60 one-dose screen, 48 h; settings: 10 µM unless noted
About 83,000 compounds went through this panel and 20% of them were active in at least one assay; those are over-represented in the sample as a whole. The source made the active and inactive calls. How the source made its calls: active means growth percent below 10; inactive means the rest.
Hello, when you answer, please use one of the following outcomes: Yes (active), No (inactive)

molecule	class
O=C(CCl)Nc1ccc(NC(=O)c2cc(Cl)ccc2O)c(Cl)c1	No
COc1cc(OC)cc(-c2cc(-c3c[nH]c4ccccc34)nc(-c3c[nH]c4ccccc34)c2C#N)c1	No
Cc1ccccc1NC(=O)Nc1nc2ccc([N+](=O)[O-])cc2s1	Yes
Fc1cc(F)cc(NNC(=S)c2ccccc2)c1	No
CCS(=O)(=O)Nc1ccc(C(=O)CC2(O)C(=O)Nc3ccccc32)cc1 (centres undefined)	No

We next turn to a different molecule, shown below.
Prompt line: Please share the test call associated with `COc1ccc(/C=N/NC(=O)c2c(N)nn(C)c2Nc2ccccc2)cc1Oc1ccccc1` .
Response line: No

====

test system: KM12 colon; test: NCI-60 one-dose screen, 48 h; conditions: 10 µM unless noted
Compounds without any hit were thinned out: in the full panel of roughly 83,000, 20% have a hit. Calls of active or inactive are those of the source. How the source made its calls: active means growth percent below 10; inactive means the rest.
Hello, when you answer, please use one of the following outcomes: T for active, F for inactive

compound	class
Clc1cccc(/C=N/Nc2nc(N/N=C/c3cccc(Cl)c3)nc(N3CCCCC3)n2)c1	F
Nc1nc(=O)n([C@H]2C[C@H](O)[C@@H](CO)O2)cc1C=O	F
CC(=O)C1=C(C)NC(NNc2ccccc2)=NC1c1ccc([N+](=O)[O-])cc1 (stereo not given)	F

Prompt line: Please share the test call associated with `COc1cc(C(C)=C(c2ccc(OCCN(C)C)cc2)c2ccc(OCCN(C)C)cc2)ccc1F` .
Response line: F

Prompt line: Please share the test call associated with `CC(=C(c1ccc(OCCCN(C)C)cc1)c1ccc(OCCCN(C)C)cc1)c1ccc(Cl)cc1` .
Response line: F

====

The reader will find reported growth values listed item by item below.
tested on: HOP-62 NSCLC; assay: NCI-60 one-dose screen, 48 h (100 = growth as untreated, 0 = no growth, -100 = all killed); conditions: 10 µM unless noted
The panel holds about 83,000 compounds, 20% with a hit somewhere; the sample as a whole holds those more often.
Form entry: value (%) — number only.

Study these solved cases before continuing.
compound	property-name	reading
O=C1C(SCc2ccccc2)=C(Cl)CN1c1ccc(Cl)cc1	growth	109
Cc1ccc(S(=O)(=O)NCCCNc2nc(Nc3ccc(N4CCN(C)CC4)cc3)nc3ccsc23)cc1	growth	97.1
O=[N+]([O-])c1ccc(NC(=S)NNC(=S)Nc2ccc(F)cc2)cc1	growth	97
CC1=C(C)C(=O)C(Nc2ccc3c(c2)OCO3)=C(Br)C1=O	growth	92.9
Cc1[nH]c(C(=O)Nc2ccc(C(N)=O)cc2N2CCOC(C)C2)c(Cl)c1Cl (centres undefined)	growth	98.4

Prompt line: Look at this compound and give its reported growth. O=S1SC(c2ccccc2)=NN1c1cc(F)cc(F)c1 (centres undefined)
Response line: 48.6

Prompt line: Look at this compound and give its reported growth. CC[C@]12C=CCN3CC[C@]4(C(=C(C(=O)OC)C1)Nc1cc5c(cc14)[C@@H]1[C@H](O5)[C@@H](O)[C@@]4(CC)CC(C(=O)OC)=C5Nc6cc(O)ccc6[C@@]56CCN1C46)C32 (some centres undefined)
Response line: 16.6

Prompt line: Look at this compound and give its reported growth. `N#Cc1c(-c2cccs2)cc(-c2cnccn2)nc1SCC(=O)N/N=C/c1ccncc1`
Response line: 106

Prompt line: Look at this compound and give its reported growth. `CC(=O)OCCCCN1C=C/C(=C\C(=O)n2ccc3ccccc32)c2ccccc21`
Response line: 108

====

test system: SF-295 CNS; assay: NCI-60 one-dose screen, 48 h (100 = growth as untreated, 0 = no growth, -100 = all killed); conditions: 10 µM unless noted
Compounds without any hit were thinned out: in the full panel of roughly 83,000, 20% have a hit.
The reader will find reported growth values listed item by item below.
Form entry: value (%) — number only.

Study these solved cases before continuing.
line-notation	growth / %
Cc1cc(=O)[nH]c(O)c1C#N	102
COc1cc2oc(-c3cccc(NC(=O)c4cccc([N+](=O)[O-])c4)c3)cc(=O)c2c(OC)c1OC	79.8
O=C(N/N=C\c1ccc(F)cc1)c1ccc2nc(-c3ccc(Br)cc3)[nH]c2c1	39.4
COc1ccc2c(c1)c(-c1nn3cc(-c4ccncc4)nc3s1)cn2C	75.3

Consider the record given below.
Prompt line: Look at this compound and give its reported growth. `COc1ccc2c(c1)c(/C=N/Nc1ccnc3cc(Cl)ccc13)cn2C`
Response line: -84.4

====

system: CCRF-CEM leukemia; experiment: NCI-60 one-dose screen, 48 h; settings: 10 µM unless noted
Compounds without any hit were thinned out: in the full panel of roughly 83,000, 20% have a hit. Calls of active or inactive are those of the source. The calls were made as follows: active = growth percent below 10; inactive = the rest.
Hello, when you answer, please use one of the following outcomes: 1 (yes) (active), 0 (no) (inactive)

molecule	class
CN(C)CC(=O)Nc1nc(-c2cccc(NS(=O)(=O)c3cccc4c(N(C)C)cccc34)c2)cs1	0 (no)
CC(Nc1ncnc2ccc(-c3cnc4cnccn34)cc12)c1ccccc1 (stereo unspecified)	0 (no)
CN1CCN(c2ccc(C(=O)/C=C/c3cc(F)cc(C(F)(F)F)c3)cc2)CC1	0 (no)
Brc1cccc(-c2cc(-c3ccc4c(c3)OC=CO4)[nH]n2)c1	0 (no)
NS(=O)(=O)c1ccc(CCn2c(-c3ccc(C(=O)O)cc3)nc(-c3ccccc3)c2-c2ccccc2)cc1	0 (no)
CC(C)NC(=O)c1cc(-c2ccc(NC(=O)Nc3ccc(F)c(C(F)(F)F)c3)cc2)nc2cccnc12	0 (no)

Prompt line: Please share the test call associated with `C(=N\Nc1nc(N/N=C/c2ccc3c(c2)OCO3)nc(N2CCCCC2)n1)/c1ccc2c(c1)OCO2` .
Response line: 0 (no)

Prompt line: Please share the test call associated with `Cc1ccc2c(n1)C(=O)C(Cl)=C(Nc1ccc(C(=O)OC(C)(C)C)cc1)C2=O` .
Response line: 1 (yes)

Prompt line: Please share the test call associated with NS(=O)(=O)c1ccc(Nc2nc(Nc3ccccc3)nc(N3N=C(c4ccc(Cl)cc4)CC3c3ccc(Cl)cc3)n2)cc1 (stereo unspecified) .
Response line: 0 (no)

Prompt line: Please share the test call associated with `CCN1CCN(c2ccc(NC(=O)Nc3ccc4c(ccn4-c4ccnc(C(=O)NC)c4)c3)cc2C(F)(F)F)CC1` .
Response line: 1 (yes)

Prompt line: Please share the test call associated with `Cc1cc(=O)oc2cc(OCCCOc3ccc(/C=C/C(=O)Nc4ccc(Br)cc4)cc3)ccc12` .
Response line: 0 (no)

Prompt line: Please share the test call associated with `COc1cccc(N2CCN(C3=C(Cl)C(=O)c4ncccc4C3=O)CC2)c1` .
Response line: 1 (yes)

Prompt line: Please share the test call associated with `COC(=O)c1cccc(NC2=C(Cl)C(=O)C(C)=C(C)C2=O)c1` .
Response line: 1 (yes)

Prompt line: Please share the test call associated with `N#Cc1c(-c2cccs2)cc(-c2cnccn2)nc1SCC(=O)N/N=C/c1ccccc1` .
Response line: 0 (no)

Prompt line: Please share the test call associated with `C/C(=N\NC(N)=S)c1nnn(-c2ccc([N+](=O)[O-])cc2)c1C` .
Response line: 0 (no)

====

system: UO-31 renal; assay: NCI-60 one-dose screen, 48 h (100 = growth as untreated, 0 = no growth, -100 = all killed); conditions: 10 µM unless noted
This is part of a sample that, as a whole, favours compounds with a hit. Of some 83,000 tested, about 20% had one in any assay.
The reader will find reported growth values listed item by item below.
Form entry: value (%) — number only.

Study these solved cases before continuing.
compound	reading
O=S(=O)(NCCCNc1nccc(-c2[nH]c(-c3ccccc3)nc2-c2ccc(F)c(O)c2)n1)c1ccc(C(F)(F)F)cc1	91.4
COc1cc(NC(=O)Nc2cccc(-c3cc(=O)c4c(OC)c(OC)c(OC)cc4o3)c2)cc(OC)c1OC	24.7
Cc1ccc(C(=O)CSc2nc3ccccc3c(=O)n2C)cc1	56.6
Brc1cccc(-c2cc(-c3ccc4c(c3)OC=CO4)[nH]n2)c1	50.4
CC(=O)OC[C@@]12Oc3c(cccc3-c3ccc(O)c4c3O[C@]3(COC(C)=O)C(=C4O)C(=O)C[C@H](C)[C@@H]3OC(C)=O)C(O)=C1C(=O)C[C@H](C)[C@@H]2OC(C)=O	9.35
Brc1ccc(-c2cc(-c3ccc4c(c3)OCCO4)n[nH]2)s1	44.5

Prompt line: growth of NS(=O)(=O)c1ccc(Nc2nc(Nc3ccccc3)nc(N3N=C(c4ccc(Cl)cc4)CC3c3ccc(Cl)cc3)n2)cc1 (stereo not drawn) on UO-31 renal?
Response line: 48.9

Prompt line: growth of `Nc1ccc(Nc2ncnc3sc4c(c23)CCN(Cc2ccccc2)C4)cc1` on UO-31 renal?
Response line: 83.8
